Entry source: PubChem BioAssay (NCI)

Known growth of a selection of compounds
system: NCI-H322M lung; experiment: NCI-60 one-dose screen, 48 h (100 = growth as untreated, 0 = no growth, -100 = all killed); conditions: 10 µM unless noted
The panel holds about 83,000 compounds, 20% with a hit somewhere; the sample as a whole holds those more often.
# output: bare number, implied unit %

O=C(O)c1ccc(-c2ccc(/C=N/NC(=O)c3[nH]c4ccc(Br)cc4c3-c3ccccc3)o2)cc1: 37.5
Cc1ccc(-c2nc(C#N)c(S(=O)(=O)N3CCN(S(=O)(=O)c4ccc(Cl)cc4)CC3)o2)cc1: 97.1
C=CC(=O)Nc1ccc(C)c(Oc2ccc(Cl)cc2)c1: 48.4
O=C(Nc1ccccc1)N1CCN(c2cc(-c3cn(-c4ccccc4)nc3-c3cccc(O)c3)ccn2)CC1: 104

The record that follows has no growth shown yet.
(Q) Look up and report measured growth for this entry: O=C(/C=C/c1cccc(OCc2ccc(F)cc2)c1)c1nc2ccccc2[nH]1
(A) 114
